Target: cell-surface VLA-4 (α4β1 integrin) on Ramos cells binding to immobilized VCAM-1 (Homo sapiens, UniProt P05556+P13612)
Construct: Ramos cells bearing cell-surface VLA-4; endogenous in cells; host or cells: Ramos cells (VLA-4); VCAM-1 purified from CHO cell culture media
Sequence (P13612 34-1032): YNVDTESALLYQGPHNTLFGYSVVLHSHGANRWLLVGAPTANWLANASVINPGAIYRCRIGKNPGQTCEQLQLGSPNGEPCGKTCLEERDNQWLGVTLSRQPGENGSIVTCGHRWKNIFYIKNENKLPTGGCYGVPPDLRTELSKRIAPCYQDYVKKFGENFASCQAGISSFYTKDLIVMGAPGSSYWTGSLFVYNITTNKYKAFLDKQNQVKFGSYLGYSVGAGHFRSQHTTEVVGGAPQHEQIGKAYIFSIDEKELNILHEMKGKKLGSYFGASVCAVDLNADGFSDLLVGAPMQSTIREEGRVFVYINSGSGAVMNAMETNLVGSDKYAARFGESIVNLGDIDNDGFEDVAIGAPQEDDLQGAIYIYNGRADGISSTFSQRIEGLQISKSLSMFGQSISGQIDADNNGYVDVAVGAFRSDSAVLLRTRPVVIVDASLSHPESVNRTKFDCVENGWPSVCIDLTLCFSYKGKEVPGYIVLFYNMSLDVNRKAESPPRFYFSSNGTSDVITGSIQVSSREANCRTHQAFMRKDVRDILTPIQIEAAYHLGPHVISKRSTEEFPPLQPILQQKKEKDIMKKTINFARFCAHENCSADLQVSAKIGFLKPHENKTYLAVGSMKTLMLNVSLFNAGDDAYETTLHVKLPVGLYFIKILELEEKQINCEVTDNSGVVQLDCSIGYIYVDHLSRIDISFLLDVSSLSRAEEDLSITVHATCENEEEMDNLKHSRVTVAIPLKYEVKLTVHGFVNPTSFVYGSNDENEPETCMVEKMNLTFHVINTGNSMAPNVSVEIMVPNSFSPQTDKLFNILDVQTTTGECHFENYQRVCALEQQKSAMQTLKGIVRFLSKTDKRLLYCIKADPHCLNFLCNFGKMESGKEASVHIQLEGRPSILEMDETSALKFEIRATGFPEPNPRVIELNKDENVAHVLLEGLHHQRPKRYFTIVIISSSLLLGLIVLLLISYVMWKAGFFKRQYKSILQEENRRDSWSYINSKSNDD
Sequence (P05556 21-798): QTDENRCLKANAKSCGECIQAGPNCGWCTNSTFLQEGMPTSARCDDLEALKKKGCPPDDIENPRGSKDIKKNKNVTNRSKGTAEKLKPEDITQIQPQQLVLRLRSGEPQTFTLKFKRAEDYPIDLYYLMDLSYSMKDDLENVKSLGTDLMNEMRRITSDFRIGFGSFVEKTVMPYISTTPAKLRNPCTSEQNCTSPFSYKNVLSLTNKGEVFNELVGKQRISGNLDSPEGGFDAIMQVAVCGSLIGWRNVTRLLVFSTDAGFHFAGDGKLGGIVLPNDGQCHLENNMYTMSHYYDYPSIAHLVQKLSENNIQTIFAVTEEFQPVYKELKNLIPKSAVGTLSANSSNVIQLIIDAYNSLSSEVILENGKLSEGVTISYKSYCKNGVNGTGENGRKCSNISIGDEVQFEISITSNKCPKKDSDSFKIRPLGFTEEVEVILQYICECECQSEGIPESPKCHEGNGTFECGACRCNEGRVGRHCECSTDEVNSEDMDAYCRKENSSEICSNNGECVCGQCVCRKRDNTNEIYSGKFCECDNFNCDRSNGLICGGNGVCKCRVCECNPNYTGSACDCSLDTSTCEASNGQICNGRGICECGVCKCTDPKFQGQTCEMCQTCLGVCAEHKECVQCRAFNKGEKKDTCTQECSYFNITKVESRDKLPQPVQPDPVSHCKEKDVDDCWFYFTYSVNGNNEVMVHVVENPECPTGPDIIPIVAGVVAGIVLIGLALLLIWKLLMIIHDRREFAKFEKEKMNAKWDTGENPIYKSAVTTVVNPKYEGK
Assay: Ramos (VLA-4)/VCAM-1 Cell-Based Screening Assay (cell adhesion)
Settings: Conc. 10 nM; Ramos cell adhesion to VCAM-1
Entries and their inhibition at 0.01 µM

Molecule	inhibition at 0.01 µM, %
CC(=O)NCCC1(C(=O)NC(Cc2ccc(N3C(=O)C(Cc4cccnc4)N(C(C)=O)C3c3ccc(Cl)cc3)cc2)C(=O)O)CCCC1 (stereo not drawn)	70
COc1ccc(CC2C(=O)N(c3ccc(CC(NC(=O)C4(CCNC(C)=O)CCCC4)C(=O)O)cc3)C(c3ccc(Cl)cc3)N2C(=O)COc2ccccc2)cc1 (single isomer, unassigned)	48
CCCC(=O)N1C(Cc2ccccc2)C(=O)N(c2ccc(CC(NC(=O)C3(CCNC(C)=O)CCCC3)C(=O)O)cc2)C1c1ccccc1 (single isomer, unassigned)	68

---

Biological target: cell-surface VLA-4 (α4β1 integrin) on Ramos cells binding to immobilized VCAM-1 (Homo sapiens, UniProt P05556+P13612)
Construct: Ramos cells bearing cell-surface VLA-4; endogenous in cells; host or cells: Ramos cells (VLA-4); VCAM-1 purified from CHO cell culture media
Assay: Ramos (VLA-4)/VCAM-1 Cell-Based Screening Assay (cell adhesion)
Settings: Calcein-AM labeled Ramos cells, VCAM-1 coated plates, 45 min at room temperature; read-out: IC50 in Ramos Cell Based Assay
Hi! Just check whether IC50 is below 0.02 µM. Below gives True, equal or above gives False.

Compound	Group
COCCCCC1(C(=O)N[C@@H](Cc2ccc(NC(=O)c3c(Cl)cccc3Cl)cc2)C(=O)O)CCCC1 [Example 250]	False
C=CCCC1(C(=O)N[C@@H](Cc2ccc(NC(=O)c3c(Cl)cccc3Cl)cc2)C(=O)O)CCCC1 [Example 271]	False
CC(=O)NCCC1(C(=O)N[C@@H](Cc2ccc(N3C(=O)[C@@H](Cc4ccccc4)N(C(C)=O)C3c3ccccc3)cc2)C(=O)O)CCCC1 (single isomer, unassigned) [Example 311]	True
CC(=O)N(C)CCC1(C(=O)N[C@@H](Cc2ccc(NC(=O)c3c(Cl)cccc3Cl)cc2)C(=O)O)CCCC1 [Example 200]	True
O=C(NCCC1(C(=O)N[C@@H](Cc2ccc(NC(=O)c3c(Cl)cccc3Cl)cc2)C(=O)O)CCCC1)c1ccno1 [Example 158]	False
COc1ccc(C[C@@H]2C(=O)N(c3ccc(C[C@H](NC(=O)C4(CCNC(C)=O)CCCC4)C(=O)O)cc3)C(c3ccccc3)N2C(C)=O)cc1 (single isomer, unassigned) [Example 278]	True

---

Entries and their IC50
Molecular target: VLA-4 (α4β1 integrin) binding to immobilized VCAM-1 (Homo sapiens, UniProt P05556+P13612)
Construct: followed by 10 μl of Ramos cell-derived VLA-4; endogenous in cells; host or cells: Ramos cells (VLA-4 preparation derived from the cells)
Test: VLA-4/VCAM-1 Screening Assay (solid-phase, dual antibody ELISA)
Conditions: IC50 nM, Ramos cell-derived VLA-4, recombinant human VCAM-1 coated plates, 2 hr at 37° C.
Measure name: IC50

> print(dat)
                               input.smiles   result
1  NCCC1(C(=O)N[C@@H](Cc2ccc(NC(=O)c3c(Cl)cccc3Cl)cc2)C(=O)O)CCCC1   5.1 nM
2  O=C(Nc1ccc(C[C@H](NC(=O)C2(Cc3ccccc3Cl)CCCC2)C(=O)O)cc1)c1c(Cl)cccc1Cl   1.6 nM
3  Cn1nnnc1-c1ccc(CC2(C(=O)N[C@@H](Cc3ccc(NC(=O)c4c(Cl)cccc4Cl)cc3)C(=O)O)CCC2)cc1  0.42 nM

---

Biological target: cell-surface VLA-4 (α4β1 integrin) on Ramos cells binding to immobilized VCAM-1 (Homo sapiens, UniProt P05556+P13612)
Construct: Ramos cells bearing cell-surface VLA-4; endogenous in cells; host or cells: Ramos cells (VLA-4); VCAM-1 purified from CHO cell culture media
Assay: Ramos (VLA-4)/VCAM-1 Cell-Based Screening Assay (cell adhesion)
Details: Calcein-AM labeled Ramos cells, VCAM-1 coated plates, 45 min at room temperature; read-out: IC50 in Ramos Cell Based Assay
pIC50: −log10 of the molar value.
Measure name: pIC50

> print(dat)
                                   compound  recorded.number
1  COc1ccc(CC2(C(=O)N[C@@H](Cc3ccc(NC(=O)c4c(Cl)cccc4Cl)cc3)C(=O)O)CCCC2)cc1 [Example 43]             7.44
2  CC(C)(C)OC(=O)NCC(=O)NCCC1(C(=O)N[C@@H](Cc2ccc(NC(=O)c3c(Cl)cccc3Cl)cc2)C(=O)O)CCCC1 [Example 216]             6.45
3  COC(=O)NCCC1(C(=O)N[C@@H](Cc2ccc(NC(=O)c3c(Cl)cccc3Cl)cc2)C(=O)O)CCCC1 [Example 193]             7.40
4  COCCC1(C(=O)N[C@@H](Cc2ccc(NC(=O)c3cc(C#N)ccc3Cl)cc2)C(=O)O)CCCC1 [Example 363]             7.96

---

Target: VLA-4 (α4β1 integrin) binding to immobilized VCAM-1 (Homo sapiens, UniProt P05556+P13612)
Construct: followed by 10 μl of Ramos cell-derived VLA-4; endogenous in cells; host or cells: Ramos cells (VLA-4 preparation derived from the cells)
Assay: VLA-4/VCAM-1 Screening Assay (solid-phase, dual antibody ELISA)
Settings: Ramos cell-derived VLA-4, recombinant human VCAM-1 coated plates, 2 hr at 37° C.; read-out: IC50
Counter-ions that a name gives are not always drawn.
Measure name: IC50 (nM)

> print(dat)
                                   molecule  recorded.number
1  CC1CCC(C)(C(=O)N[C@@H](Cc2ccc(NC(=O)c3ccnc4ccccc34)cc2)C(=O)O)C1(C)C (stereo partly drawn)              2.5
2  CCCCC(C)(CC)C(=O)N[C@@H](Cc1ccc(NC(=O)c2cc([N+](=O)[O-])ccc2C)cc1)C(=O)O (stereo partly drawn)             1.04
3  COc1ccc(CC2(C(=O)N[C@@H](Cc3ccc(NC(=O)c4ccc(F)cc4C(F)(F)F)cc3)C(=O)O)CCCC2)cc1             17.4
4  CC1(C(=O)N[C@@H](Cc2ccc(NC(=O)c3ccnc4ccccc34)cc2)C(=O)O)CC1(Cl)Cl (stereo partly drawn)                3
5  O=C(Nc1ccc(C[C@H](NC(=O)C2(c3ccccc3)CCCC2)C(=O)O)cc1)c1ccnc2ccccc12 [Example 27, Sodium Salt]              2.7
6  COCCC1(C(=O)N[C@@H](Cc2ccc(N3C(=O)c4ccc(C#N)cc4C3=O)cc2)C(=O)O)CCCC1             1.65

---

Target: VLA-4 (α4β1 integrin) binding to immobilized VCAM-1 (Homo sapiens, UniProt P05556+P13612)
Construct: followed by 10 μl of Ramos cell-derived VLA-4; endogenous in cells; host or cells: Ramos cells (VLA-4 preparation derived from the cells)
Experiment: VLA-4/VCAM-1 Screening Assay (solid-phase, dual antibody ELISA)
Conditions: Ramos cell-derived VLA-4, recombinant human VCAM-1 coated plates, 2 hr at 37° C.; read-out: IC50
Entries and their IC50

Molecule	Target	IC50 / nM
O=C(CC1CCCC1)NCCC1(C(=O)N[C@@H](Cc2ccc(NC(=O)c3c(Cl)cccc3Cl)cc2)C(=O)O)CCCC1 [Example 164]	VLA-4 (α4β1 integrin) binding to immobilized VCAM-1 (Homo sapiens, UniProt P05556+P13612)	6.2
[N-]=[N+]=NCCC1(C(=O)N[C@@H](Cc2ccc(NC(=O)c3c(Cl)cccc3Cl)cc2)C(=O)O)CCCC1 [Example 58]	VLA-4 (α4β1 integrin) binding to immobilized VCAM-1 (Homo sapiens, UniProt P05556+P13612)	0.58
COc1ccc(C2(C(=O)N[C@@H](Cc3ccc(NC(=O)N4CCC(C#N)(c5ccccc5)CC4)cc3)C(=O)O)CCCCC2)cc1 [Example 122]	VLA-4 (α4β1 integrin) binding to immobilized VCAM-1 (Homo sapiens, UniProt P05556+P13612)	2.1
CNC(=O)NCCC1(C(=O)N[C@@H](Cc2ccc(NC(=O)c3c(Cl)cccc3Cl)cc2)C(=O)O)CCCC1 [Example 187]	VLA-4 (α4β1 integrin) binding to immobilized VCAM-1 (Homo sapiens, UniProt P05556+P13612)	0.26
CC(C)(C)OC(=O)NCC(=O)NCCC1(C(=O)N[C@@H](Cc2ccc(NC(=O)c3c(Cl)cccc3Cl)cc2)C(=O)O)CCCC1 [Example 216]	VLA-4 (α4β1 integrin) binding to immobilized VCAM-1 (Homo sapiens, UniProt P05556+P13612)	2.9
Cc1cc([N+](=O)[O-])ccc1C(=O)Nc1ccc(C[C@H](NC(=O)C2(C)CC2(Cl)Cl)C(=O)O)cc1 (stereo partly drawn) [Example 100]	VLA-4 (α4β1 integrin) binding to immobilized VCAM-1 (Homo sapiens, UniProt P05556+P13612)	0.26
COc1ccc(CC2(C(=O)N[C@@H](Cc3ccc(NC(=O)[C@H](Cc4ccc(O)cc4)NC(C)=O)cc3)C(=O)O)CCCC2)cc1 [Example 98]	VLA-4 (α4β1 integrin) binding to immobilized VCAM-1 (Homo sapiens, UniProt P05556+P13612)	11.7
COc1ccc(CC2(C(=O)N[C@@H](Cc3ccc(N4C(=O)c5ccncc5C4=O)cc3)C(=O)O)CCCC2)cc1 [Example 109]	VLA-4 (α4β1 integrin) binding to immobilized VCAM-1 (Homo sapiens, UniProt P05556+P13612)	62
O=C(Nc1ccc(C[C@H](NC(=O)C23CC4CC(CC(C4)C2)C3)C(=O)O)cc1)c1ccnc2ccccc12 [Example 65]	VLA-4 (α4β1 integrin) binding to immobilized VCAM-1 (Homo sapiens, UniProt P05556+P13612)	2.4
CC1(C)C2CCC1(C(=O)NC(Cc1ccc(NC(=O)c3c(Cl)cccc3Cl)cc1)C(=O)O)C(=O)C2 (stereo not drawn) [Example 49]	VLA-4 (α4β1 integrin) binding to immobilized VCAM-1 (Homo sapiens, UniProt P05556+P13612)	4.7
CC(C)C(C(=O)N[C@@H](Cc1ccc(NC(=O)c2ccnc3ccccc23)cc1)C(=O)O)c1ccccc1 (stereo partly drawn) [Example 76]	VLA-4 (α4β1 integrin) binding to immobilized VCAM-1 (Homo sapiens, UniProt P05556+P13612)	4.6
COCCC1(C(=O)NC(Cc2ccc(N3C(=O)C(CC(C)C)N(C(C)=O)C3c3ccc(OC)cc3)cc2)C(=O)O)CCCC1 (single isomer, unassigned) [Example 130]	VLA-4 (α4β1 integrin) binding to immobilized VCAM-1 (Homo sapiens, UniProt P05556+P13612)	6.6
CC(=O)N[C@@H](Cc1ccc(O)cc1)C(=O)Nc1ccc(C[C@H](NC(=O)C23CC4CC(CC(C4)C2)C3)C(=O)O)cc1 [Example 86]	VLA-4 (α4β1 integrin) binding to immobilized VCAM-1 (Homo sapiens, UniProt P05556+P13612)	6.8
COCCC1(C(=O)NC(Cc2ccc(N3C(=O)C(CC(C)C)N(C(C)=O)C3c3ccc(Cl)cc3)cc2)C(=O)O)CCCC1 (single isomer, unassigned) [Example 133]	VLA-4 (α4β1 integrin) binding to immobilized VCAM-1 (Homo sapiens, UniProt P05556+P13612)	60
COCCC1(C(=O)NC(Cc2ccc(N3C(=O)C(CC(C)C)N(C(C)=O)C3c3ccc(Cl)cc3)cc2)C(=O)O)CCCC1 (single isomer, unassigned) [Example 139]	VLA-4 (α4β1 integrin) binding to immobilized VCAM-1 (Homo sapiens, UniProt P05556+P13612)	38
O=C(NCCC1(C(=O)N[C@@H](Cc2ccc(NC(=O)c3c(Cl)cccc3Cl)cc2)C(=O)O)CCCC1)c1ccc2c(c1)OCO2 [Example 165]	VLA-4 (α4β1 integrin) binding to immobilized VCAM-1 (Homo sapiens, UniProt P05556+P13612)	11
O=C(Nc1ccc(C[C@H](NC(=O)C2(CCNC(=O)C3CCCN3C(=O)C(F)(F)F)CCCC2)C(=O)O)cc1)c1c(Cl)cccc1Cl (stereo partly drawn) [Example 159]	VLA-4 (α4β1 integrin) binding to immobilized VCAM-1 (Homo sapiens, UniProt P05556+P13612)	6.4
CCCCC(C)(CC)C(=O)N[C@@H](Cc1ccc(NC(=O)c2ccc(F)cc2C(F)(F)F)cc1)C(=O)O (stereo partly drawn) [Example 89]	VLA-4 (α4β1 integrin) binding to immobilized VCAM-1 (Homo sapiens, UniProt P05556+P13612)	81
